run_description: Therapeutic index, ratio of MHC for human RBC to geometric mean of peptide MIC for Salmonella typhimurium 7731
Assay type: toxicity
condition_info: human red blood cells (RBC), read-out: TI
Where a SMILES comes first, the peptide text is derived from it.
quantity_kind: selectivity ratio

{"molecule": "CC[C@H](C)[C@H](N)C(=O)N[C@@H](CS)C(=O)N[C@@H](CCCNC(=N)N)C(=O)N[C@@H](CCCCN)C(=O)N1CCC[C@H]1C(=O)N[C@H](C(=O)N[C@H](C(=O)N[C@@H](CS)C(=O)N[C@@H](CCCNC(=N)N)C(=O)N[C@@H](CCCCN)C(=O)N1CCC[C@H]1C(=O)N[C@H](C(=O)N[C@H](C(=O)N[C@@H](CS)C(=O)N[C@@H](CCCNC(=N)N)C(=O)N[C@@H](CCCCN)C(=O)N1CCC[C@H]1C(=O)N[C@H](C(N)=O)[C@@H](C)CC)[C@@H](C)CC)[C@@H](C)CC)[C@@H](C)CC)[C@@H](C)CC (H-ICRKPIICRKPIICRKPI-NH2)", "endpoint_value": 11.3}
{"molecule": "CC[C@H](C)[C@H](N)C(=O)N[C@H](C(=O)N[C@H](C(=O)N[C@@H](CS)C(=O)N[C@@H](CCCNC(=N)N)C(=O)N[C@@H](CCCCN)C(=O)N1CCC[C@H]1C(=O)N[C@H](C(=O)N[C@H](C(=O)N[C@@H](CS)C(=O)N[C@@H](CCCNC(=N)N)C(=O)N[C@@H](CCCCN)C(=O)N1CCC[C@H]1C(=O)N[C@H](C(=O)N[C@H](C(=O)N[C@H](C(N)=O)[C@@H](C)CC)[C@@H](C)CC)[C@@H](C)CC)[C@@H](C)CC)[C@@H](C)CC)[C@@H](C)CC)[C@@H](C)CC (H-IIICRKPIICRKPIII-NH2)", "endpoint_value": 6.35}
{"molecule": "CC[C@H](C)[C@H](N)C(=O)N[C@H](C(=O)N[C@@H](CS)C(=O)N[C@@H](CCCNC(=N)N)C(=O)N[C@@H](CCCCN)C(=O)N1CCC[C@H]1C(=O)N[C@H](C(=O)N[C@H](C(=O)N[C@@H](CS)C(=O)N[C@@H](CCCNC(=N)N)C(=O)N[C@@H](CCCCN)C(=O)N1CCC[C@H]1C(=O)N[C@H](C(=O)N[C@H](C(N)=O)[C@@H](C)CC)[C@@H](C)CC)[C@@H](C)CC)[C@@H](C)CC)[C@@H](C)CC (H-IICRKPIICRKPII-NH2)", "endpoint_value": 4}
{"molecule": "CC(C)[C@H](N)C(=O)N[C@@H](CS)C(=O)N[C@@H](CCCNC(=N)N)C(=O)N[C@@H](CCCCN)C(=O)N1CCC[C@H]1C(=O)N[C@H](C(=O)N[C@H](C(=O)N[C@@H](CS)C(=O)N[C@@H](CCCNC(=N)N)C(=O)N[C@@H](CCCCN)C(=O)N1CCC[C@H]1C(=O)N[C@H](C(=O)N[C@H](C(=O)N[C@@H](CS)C(=O)N[C@@H](CCCNC(=N)N)C(=O)N[C@@H](CCCCN)C(=O)N1CCC[C@H]1C(=O)N[C@H](C(N)=O)C(C)C)C(C)C)C(C)C)C(C)C)C(C)C (H-VCRKPVVCRKPVVCRKPV-NH2)", "endpoint_value": 6.35}
{"molecule": "CC(C)[C@H](N)C(=O)N[C@@H](CS)C(=O)N[C@@H](CCCNC(=N)N)C(=O)N[C@@H](CCCCN)C(=O)N1CCC[C@H]1C(=O)N[C@H](C(=O)N[C@H](C(=O)N[C@@H](CS)C(=O)N[C@@H](CCCNC(=N)N)C(=O)N[C@@H](CCCCN)C(=O)N1CCC[C@H]1C(=O)N[C@H](C(N)=O)C(C)C)C(C)C)C(C)C (H-VCRKPVVCRKPV-NH2)", "endpoint_value": 2}
{"molecule": "CC[C@H](C)[C@H](N)C(=O)N[C@@H](CS)C(=O)N[C@@H](CCCNC(=N)N)C(=O)N[C@@H](CCCCN)C(=O)N1CCC[C@H]1C(=O)N[C@H](C(=O)N[C@H](C(=O)N[C@@H](CS)C(=O)N[C@@H](CCCNC(=N)N)C(=O)N[C@@H](CCCCN)C(=O)N1CCC[C@H]1C(=O)N[C@H](C(N)=O)[C@@H](C)CC)[C@@H](C)CC)[C@@H](C)CC (H-ICRKPIICRKPI-NH2)", "endpoint_value": 2}

====

run_description: Therapeutic index, ratio of MHC for human RBC to geometric mean of peptide MIC for Salmonella choleraesuis 503
Format: toxicity
condition_info: human red blood cells (RBC), read-out: TI
Where a SMILES comes first, the peptide text is derived from it.
Reported selectivity ratio values are given for each entry in this list.
quantity_kind: selectivity ratio

{"molecule": "CC[C@H](C)[C@H](N)C(=O)N[C@@H](CS)C(=O)N[C@@H](CCCNC(=N)N)C(=O)N[C@@H](CCCCN)C(=O)N1CCC[C@H]1C(=O)N[C@H](C(=O)N[C@H](C(=O)N[C@@H](CS)C(=O)N[C@@H](CCCNC(=N)N)C(=O)N[C@@H](CCCCN)C(=O)N1CCC[C@H]1C(=O)N[C@H](C(N)=O)[C@@H](C)CC)[C@@H](C)CC)[C@@H](C)CC (H-ICRKPIICRKPI-NH2)", "endpoint_value": 2}
{"molecule": "CC(C)[C@H](N)C(=O)N[C@@H](CS)C(=O)N[C@@H](CCCNC(=N)N)C(=O)N[C@@H](CCCCN)C(=O)N1CCC[C@H]1C(=O)N[C@H](C(=O)N[C@H](C(=O)N[C@@H](CS)C(=O)N[C@@H](CCCNC(=N)N)C(=O)N[C@@H](CCCCN)C(=O)N1CCC[C@H]1C(=O)N[C@H](C(N)=O)C(C)C)C(C)C)C(C)C (H-VCRKPVVCRKPV-NH2)", "endpoint_value": 2}
{"molecule": "CC[C@H](C)[C@H](N)C(=O)N[C@H](C(=O)N[C@H](C(=O)N[C@@H](CS)C(=O)N[C@@H](CCCNC(=N)N)C(=O)N[C@@H](CCCCN)C(=O)N1CCC[C@H]1C(=O)N[C@H](C(=O)N[C@H](C(=O)N[C@@H](CS)C(=O)N[C@@H](CCCNC(=N)N)C(=O)N[C@@H](CCCCN)C(=O)N1CCC[C@H]1C(=O)N[C@H](C(=O)N[C@H](C(=O)N[C@H](C(N)=O)[C@@H](C)CC)[C@@H](C)CC)[C@@H](C)CC)[C@@H](C)CC)[C@@H](C)CC)[C@@H](C)CC)[C@@H](C)CC (H-IIICRKPIICRKPIII-NH2)", "endpoint_value": 6.35}

====

run_description: Therapeutic index, ratio of MHC for human RBC to geometric mean of peptide MIC for Streptococcus agalactiae H92
Format: toxicity
condition_info: human red blood cells (RBC), read-out: TI
Where a SMILES comes first, the peptide text is derived from it.
Each item that follows carries a reported selectivity ratio.
quantity_kind: selectivity ratio

{"molecule": "CC[C@H](C)[C@H](N)C(=O)N[C@H](C(=O)N[C@@H](CS)C(=O)N[C@@H](CCCNC(=N)N)C(=O)N[C@@H](CCCCN)C(=O)N1CCC[C@H]1C(=O)N[C@H](C(=O)N[C@H](C(=O)N[C@@H](CS)C(=O)N[C@@H](CCCNC(=N)N)C(=O)N[C@@H](CCCCN)C(=O)N1CCC[C@H]1C(=O)N[C@H](C(=O)N[C@H](C(N)=O)[C@@H](C)CC)[C@@H](C)CC)[C@@H](C)CC)[C@@H](C)CC)[C@@H](C)CC (H-IICRKPIICRKPII-NH2)", "endpoint_value": 2}
{"molecule": "CC(C)[C@H](N)C(=O)N[C@@H](CS)C(=O)N[C@@H](CCCNC(=N)N)C(=O)N[C@@H](CCCCN)C(=O)N1CCC[C@H]1C(=O)N[C@H](C(=O)N[C@H](C(=O)N[C@@H](CS)C(=O)N[C@@H](CCCNC(=N)N)C(=O)N[C@@H](CCCCN)C(=O)N1CCC[C@H]1C(=O)N[C@H](C(=O)N[C@H](C(=O)N[C@@H](CS)C(=O)N[C@@H](CCCNC(=N)N)C(=O)N[C@@H](CCCCN)C(=O)N1CCC[C@H]1C(=O)N[C@H](C(N)=O)C(C)C)C(C)C)C(C)C)C(C)C)C(C)C (H-VCRKPVVCRKPVVCRKPV-NH2)", "endpoint_value": 2}
{"molecule": "CC[C@H](C)[C@H](N)C(=O)N[C@@H](CS)C(=O)N[C@@H](CCCNC(=N)N)C(=O)N[C@@H](CCCCN)C(=O)N1CCC[C@H]1C(=O)N[C@H](C(=O)N[C@H](C(=O)N[C@@H](CS)C(=O)N[C@@H](CCCNC(=N)N)C(=O)N[C@@H](CCCCN)C(=O)N1CCC[C@H]1C(=O)N[C@H](C(=O)N[C@H](C(=O)N[C@@H](CS)C(=O)N[C@@H](CCCNC(=N)N)C(=O)N[C@@H](CCCCN)C(=O)N1CCC[C@H]1C(=O)N[C@H](C(N)=O)[C@@H](C)CC)[C@@H](C)CC)[C@@H](C)CC)[C@@H](C)CC)[C@@H](C)CC (H-ICRKPIICRKPIICRKPI-NH2)", "endpoint_value": 2}

Numbers sourced from ChEMBL document CHEMBL4665709.
